target: DLG4_2, P78352; test: holdup assay; parameters: key: below the threshold = too weak to quantify, mostly under pKd 3.1 to 4; conditions: plain residues with an end cap or a label only (N-terminal biotin on a linker: ado-ado)
Sequence (P78352 155-259): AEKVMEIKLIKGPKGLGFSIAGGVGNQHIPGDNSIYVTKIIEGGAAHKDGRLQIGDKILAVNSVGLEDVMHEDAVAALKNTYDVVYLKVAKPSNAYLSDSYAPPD
reported endpoint: pKd
Reply with just the number.

For orientation, consider the following solved cases.
binder | pKd
ARGPPRESEV [FAM110D, Q8TAY7] | 5.63
TNSRHGETTV [FZD2, Q14332] | 4.92
PTPDLPQTRV [KLHDC7A, Q5VTJ3] | 3.5
QSGLYESEEL [MYOT, Q9UBF9] | 3.53
NVYGIESVKI [GRIA2, P42262] | 3.73

GET /values?readout=pKd&item= SPDRDRESIV [SCN5A, Q14524]
4.73

Entry source: paper PMC9482650
